- Assay context: [M-H]-; instrument: DT; stepped-field
Measured parameter: collision cross section (N2) (Å²)
API: value field is a number in Å²; no unit string.

Recorded collision cross section (N2), per entry:
Compound	Units	Readout value
CCCC/C=C\CCCCCCCC(=O)OC[C@H](COP(=O)(O)OC[C@@H](O)CO)OC(=O)CCCCCCCCCCC/C=C\C/C=C\CCCCC [PG(36:3)]	Å²	280
CCCCC/C=C\C/C=C\CCCCCCCCCC(=O)O[C@H](COC(=O)CCCCCCCCCCCCCC)COP(=O)(O)OC[C@@H](O)CO [PG(35:2)]	Å²	278.7
CCCCC/C=C\C/C=C\CCCCCCCCCCCC(=O)O[C@H](COC(=O)CCCCCCCCCCCCCC)COP(=O)(O)OC[C@@H](O)CO [PG(37:2)]	Å²	285.5

Fill in reported collision cross section (N2) for this entry: CCCCCC/C=C\CCCCCCCC(=O)OC[C@H](COP(=O)(O)OC[C@H](N)C(=O)O)OC(=O)CCCCCCCCC/C=C\CCCCCCCCCC [PS(38:2)] 294.3

Fill in reported collision cross section (N2) for this entry: CCCCC/C=C\C/C=C\C/C=C\C/C=C\CCCCCC(=O)O[C@H](COC(=O)CCCCCCC/C=C\C/C=C\CCCCC)COP(=O)(O)OCCN [PE(40:6)] 289.4

Fill in reported collision cross section (N2) for this entry: CCCCC/C=C\C/C=C\CCCCCCCCCCCC(=O)O[C@H](COC(=O)CCCCCCCCCCC)COP(=O)(O)O [PA(16:1/18:1)] 257

Numbers sourced from the C3SDB collision cross section collection.
